experiment: Solubility in simulated biological media (37° C., HPLC); type: physicochemical; settings: simulated artificial intestinal juice-satiety, 4 hours
Where a name gives a salt, the structure may show the parent alone.
Assay endpoint: Solubility (4 hours) (µg/mL)
Your answer should be a plain number; it is taken to be in µg/mL.

Please report the recorded Solubility (4 hours) for CN1C(=O)COc2c1cnc1ccc(Sc3nnc4c(F)cc(-c5cnn(C)c5)cn34)cc21 [Crystal form III of the 1,5-naphthalenedisulfonate salt] .
33

Next: CN1C(=O)COc2c1cnc1ccc(Sc3nnc4c(F)cc(-c5cnn(C)c5)cn34)cc21 [Crystal form I of phosphate]
33

Next: CN1C(=O)COc2c1cnc1ccc(Sc3nnc4c(F)cc(-c5cnn(C)c5)cn34)cc21 [Crystal form III of mesylate]
14

Next: CN1C(=O)COc2c1cnc1ccc(Sc3nnc4c(F)cc(-c5cnn(C)c5)cn34)cc21 [Crystal form I of free base]
4

Next: CN1C(=O)COc2c1cnc1ccc(Sc3nnc4c(F)cc(-c5cnn(C)c5)cn34)cc21 [Amorphous free base]
2

Next: CN1C(=O)COc2c1cnc1ccc(Sc3nnc4c(F)cc(-c5cnn(C)c5)cn34)cc21 [Crystal form III of free base]
11

This collection of values is drawn from patent US10208065B2.
